System: SK-MEL-5 melanoma
Experiment: NCI tumour cell line growth inhibition, 48 h
Reported TGI values for a set of molecules
recorded_metric: TGI

1. CCOC(=O)C1=c2[nH]c3cccc4cccc(c43)n2C=C(C(C)=O)C1CC(C)=O (stereo not drawn): > 100 µM
2. COc1ccc(-c2nc(-c3nc4ccc(OC)cc4[nH]3)cc3c2[nH]c2ccccc23)cc1: > 100 µM
3. CC1CCC2C(C(=O)O[C@H]3C4CCO[C@@H](OC5OC(CO)C(O)C(O)C5O)C4[C@@]4(CO)O[C@@H]34)=CO[C@@H](OC3OC(CO)C(O)C(O)C3O)C12 (stereo partly drawn): > 10 µM
4. Nc1nc2nc[nH]c2c(=O)[nH]1: > 100 µM
5. CCCCCCCCCCCCCCCCOCC(COP(=O)([O-])OCC[N+](C)(C)C)OCCCCCCCCCCCCCCCC (stereo not drawn): > 100 µM
6. O=C(CCc1cccc(O)c1)NCCc1ccc(O)cc1: > 100 µM
7. CCCCCCCCCCCCCCCCCCOCC(CO[P+](=O)O)OCCCCCCCCCCCCCCCCCC (stereo not drawn): > 50 µM
8. c1ccc(/N=N/Nc2ccc(-c3nc4ccccc4[nH]3)cc2)nc1: > 100 µM
